Recorded melting point by entry
METRIC_NAME: melting point

{"MOLECULE": "CCCCOc1c(CNC(=O)OC(C)(C)C)n(CC(C)C)c(=O)c2ccc(C(C)=O)cc12", "METRIC_NAME": "melting point", "REPORTED_VALUE": "161 to 162 °C"}
{"MOLECULE": "COC(=O)C1=NNC(C)=C(C(=O)OC)C1c1cc([N+](=O)[O-])ccc1Cl (stereo not drawn)", "METRIC_NAME": "melting point", "REPORTED_VALUE": "193 to 194 °C"}
{"MOLECULE": "CC(C)c1nn(-c2ccc(C(F)(F)F)cn2)cc1CCCCOc1cc(CCC(=O)O)n(-c2ccccc2)n1", "METRIC_NAME": "melting point", "REPORTED_VALUE": "137 to 138 °C"}
{"MOLECULE": "Cc1cc(=O)n2cccc(OCC=Cc3ccccc3)c2n1", "METRIC_NAME": "melting point", "REPORTED_VALUE": "154 to 155 °C"}
{"MOLECULE": "CCOC(=O)C(=O)Nc1c([N+](=O)[O-])cc(S(=O)(=O)NC(=O)C(=O)OCC)c2c1CCCC2", "METRIC_NAME": "melting point", "REPORTED_VALUE": "140 to 142 °C"}
{"MOLECULE": "CS(=O)(=O)N1CCC(C2c3ccccc3C=Cc3ccccc32)CC1", "METRIC_NAME": "melting point", "REPORTED_VALUE": "260 to 268 °C"}
{"MOLECULE": "CN(C)C(=O)c1ccccc1-c1ccc(C(=O)N2Cc3ccc(C(=O)NCc4cccnc4)n3Cc3ccccc32)cc1", "METRIC_NAME": "melting point", "REPORTED_VALUE": "206 to 207 °C"}
{"MOLECULE": "COc1ccc(C2=NN(C3CCN(C(=O)CN4C(=O)COCC4=O)CC3)C(=O)C(C)(C)C2)cc1OC", "METRIC_NAME": "melting point", "REPORTED_VALUE": "210 to 211 °C"}
{"MOLECULE": "NNc1ccc(OCc2ccccc2)cc1", "METRIC_NAME": "melting point", "REPORTED_VALUE": "101 to 103 °C"}
{"MOLECULE": "COc1ccc2nc(NC(=O)C(CC3CCCC3)c3ccc(S(=O)(=O)N4CCN(C(C)=O)CC4)cc3)sc2n1 (stereo not drawn)", "METRIC_NAME": "melting point", "REPORTED_VALUE": "215 to 217 °C"}
{"MOLECULE": "Cc1cc(-c2c(Cl)c(=O)c2=O)c2c(C)ccc(C(C)C)cc1-2", "METRIC_NAME": "melting point", "REPORTED_VALUE": "138 to 139 °C"}
{"MOLECULE": "CC1(C)CC(c2ccc(Cl)cc2)=C(c2ccc(S(C)(=O)=O)cc2)C1", "METRIC_NAME": "melting point", "REPORTED_VALUE": "144 to 145 °C"}
{"MOLECULE": "CCCCCC(CC(=O)Nc1cc(C(=O)O)ccc1C(C)(C)C)c1ccc(C(=O)CCC)cc1OC (stereo not drawn)", "METRIC_NAME": "melting point", "REPORTED_VALUE": "136 to 138 °C"}
{"MOLECULE": "CCCCCCC(C)(C)c1ccc(C2=CCCC3(C2)OCCO3)c(O)c1", "METRIC_NAME": "melting point", "REPORTED_VALUE": "97 to 98 °C"}
{"MOLECULE": "CCc1cc(C)cc(CC)c1C1C(=O)C2CC(COc3nc(C)c(C)s3)CC2C1=O (stereo not drawn)", "METRIC_NAME": "melting point", "REPORTED_VALUE": "73 to 74 °C"}
{"MOLECULE": "CCOC(=O)c1c(CN(CC)CC)nc2sc(C)c(C)c2c1-c1ccc(Cl)cc1", "METRIC_NAME": "melting point", "REPORTED_VALUE": "98 to 100 °C"}
{"MOLECULE": "CCCC(NS(=O)(=O)c1ccc(Cl)cc1)C(=O)Nc1ccc(CC(=O)OCC)cc1 (racemic)", "METRIC_NAME": "melting point", "REPORTED_VALUE": "93 to 95 °C"}
{"MOLECULE": "CCCCCS(=O)(=O)NC(=O)/C=C/c1ccc(OCCOC)cc1Oc1ncc([N+](=O)[O-])cc1C", "METRIC_NAME": "melting point", "REPORTED_VALUE": "148 to 150 °C"}
